These measurements were taken from ChEMBL document CHEMBL1156767.

Exercise: state measured Ratio Ki for each of the compounds provided.
Organism: Homo sapiens
test.name: Selectivity ratio of Ki for human recombinant CB1 receptor to Ki for human recombinant CB2 receptor
Numbers only.

> print(dat)
                                  compound  numeric.value
1  CCCCn1cc(C(=O)C2C(C)(C)C2(C)C)c2ccccc21             46

Batch lookup, Ratio Ki per entry.
1. CC1(C)C(C(=O)c2cn(CCc3ccncc3)c3ccccc23)C1(C)C
2. CC1(C(=O)c2cn(CC3CCOCC3)c3ccccc23)CC(F)(F)C1(F)F (centres undefined)
3. CC1(C)C(C(=O)c2cn(Cc3ccncc3)c3ccccc23)C1(C)C
4. CCCn1cc(C(=O)C2C(C)(C)C2(C)C)c2ccccc21

Data returned:
[71, 31, 13, 467]

Provide Ratio Ki values for the following items, in order.
1. Cc1ncsc1CCn1cc(C(=O)C2C(C)(C)C2(C)C)c2ccccc21
2. CN1CCCCC1Cn1cc(C(=O)c2cc([N+](=O)[O-])ccc2I)c2ccccc21 (centres undefined)

Data returned:
[111, 110]

Each compound below has a reported value. Please supply its Ratio Ki.
1. CC1(C)C(C(=O)c2cn(CCCC(F)(F)F)c3ccccc23)C1(C)C
2. CCCCCn1cc(C(=O)C2C(C)(C)C2(C)C)c2ccccc21
3. CC1(C)C(C(=O)c2cn(CCc3ccccn3)c3ccccc23)C1(C)C
4. CC1(C)C(C(=O)c2cn(CCCCCO)c3ccccc23)C1(C)C

Data returned:
1: 167; 2: 83; 3: 28; 4: 958
